target: Dual specificity protein kinase CLK1 (Homo sapiens, UniProt P49759); experiment: Inhibition of human 130-end recombinant CLK1 assessed as remaining activity using ERMRPRKRQGSVR as substrate by [gamma-32P]ATP binding based scintillation counting based analysis
Sequence (P49759 whole entry): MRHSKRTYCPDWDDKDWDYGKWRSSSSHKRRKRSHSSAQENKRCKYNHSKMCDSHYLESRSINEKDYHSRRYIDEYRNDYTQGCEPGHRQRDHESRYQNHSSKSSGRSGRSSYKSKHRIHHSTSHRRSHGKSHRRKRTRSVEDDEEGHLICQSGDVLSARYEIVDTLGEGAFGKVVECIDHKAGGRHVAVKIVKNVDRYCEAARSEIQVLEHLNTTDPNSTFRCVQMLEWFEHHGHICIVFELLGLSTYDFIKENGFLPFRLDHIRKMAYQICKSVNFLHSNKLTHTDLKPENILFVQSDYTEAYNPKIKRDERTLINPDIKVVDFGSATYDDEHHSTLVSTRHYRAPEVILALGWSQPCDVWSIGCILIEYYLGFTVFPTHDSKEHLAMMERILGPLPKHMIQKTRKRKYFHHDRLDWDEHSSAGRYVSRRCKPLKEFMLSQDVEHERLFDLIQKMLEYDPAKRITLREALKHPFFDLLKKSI
pIC50: −log10 of the molar value.
attribute-measured: pIC50

Solved cases below.
Fc1cccc(CNc2cnc3[nH]cc(-c4cccnc4)c3c2)c1 : 7.82
Fc1cc(F)cc(CNc2cnc3[nH]cc(C4=CCCCC4)c3c2)c1 : 6.49
FC(F)(F)c1cccc(CNc2cnc3[nH]cc(-c4cccnc4)c3c2)c1 : 7.35
O=S(=O)(Nc1cnc2[nH]cc(-c3cncc(F)c3)c2c1)c1ccc(F)cc1 : 6.18
O=C(Nc1cnc2[nH]cc(-c3cncc(F)c3)c2c1)c1ccc(F)cc1 : 7.19

(P) CN1CCN(c2ccc(C(=O)Nc3cnc4[nH]cc(-c5cncc(F)c5)c4c3)cc2)CC1
(Q) Nc1cccc(-c2c[nH]c3ncc(NCc4cc(F)cc(F)c4)cc23)c1
(R) COc1cncc(-c2c[nH]c3ncc(NC(=O)c4ccc(F)cc4)cc23)c1
Reorder the items by pIC50, least to greatest. # list labels per requested ordering
Q, R, P

###

molecular target: Dual specificity tyrosine-phosphorylation-regulated kinase 1A (Homo sapiens, UniProt Q13627); assay: Inhibition of human full length recombinant DYRK1A assessed as remaining activity using RRRFRPASPLRGPP as substrate by [gamma-32P]ATP binding based scintillation counting based analysis
attribute-measured: IC50 (nM)

Known IC50 results, listed for orientation:
COc1cc(Cl)ccc1C(=O)Nc1cnc2[nH]cc(-c3cncc(F)c3)c2c1 : 3990
COc1cc(Cl)ccc1C(=O)Nc1cnc2[nH]cc(-c3cccnc3)c2c1 : 2040
Fc1cccc(CNc2cnc3[nH]cc(-c4cccnc4)c3c2)c1 : 475
O=C(Nc1cnc2[nH]cc(-c3cncc(F)c3)c2c1)c1ccc(F)cc1 : 2900
CN1CCN(c2ccc(CNc3cnc4[nH]cc(-c5cncc(F)c5)c4c3)cc2)CC1 : 5970

(I) Nc1cccc(-c2c[nH]c3ncc(NCc4cc(F)cc(F)c4)cc23)c1
(II) Fc1cc(F)cc(CNc2cnc3[nH]cc(-c4ccc(C(F)(F)F)cc4)c3c2)c1
(III) Fc1ccc(/C=N/c2cnc3[nH]cc(-c4cncc(F)c4)c3c2)cc1
Arrange these 3 compounds in increasing order of IC50. As an answer, provide the labels arranged in the order called for.
I, II, III

###

target: Dual specificity tyrosine-phosphorylation-regulated kinase 1A (Homo sapiens, UniProt Q13627); assay: Inhibition of human full length recombinant DYRK1A assessed as remaining activity using RRRFRPASPLRGPP as substrate at 100 nM by [gamma-32P]ATP binding based scintillation counting based analysis relative to control
attribute-measured: Activity (%)

Fc1cc(F)cc(CNc2cnc3[nH]cc(-c4ccc(C(F)(F)F)cc4)c3c2)c1 : 108
Nc1ccc(-c2c[nH]c3ncc(NCc4cc(F)cc(F)c4)cc23)cc1 : 101
COc1ccc(-c2cnc3ccc(NC4CCCC4)cn23)cc1 : 126

###

molecular target: Dual specificity protein kinase CLK1 (Homo sapiens, UniProt P49759); experiment: Inhibition of human 130-end recombinant CLK1 assessed as remaining activity using ERMRPRKRQGSVR as substrate at 100 nM by [gamma-32P]ATP binding based scintillation counting based analysis relative to control
Sequence (P49759 whole entry, looked up): as the sequence (P49759 whole entry) above
attribute-measured: Activity (%)

Past entries and their recorded results:
CN1CCN(c2ccc(CNc3cnc4[nH]cc(-c5cccnc5)c4c3)cc2)CC1 : 9
NC(=O)c1cccc(-c2c[nH]c3ncc(NCc4cc(F)cc(F)c4)cc23)c1 : 89
COc1ccc(-c2c[nH]c3ncc(NCc4cc(F)cc(F)c4)cc23)cc1 : 3
COc1ccc(-c2cnc3ccc(NC4CCCC4)cn23)cc1 : 99

(a) Nc1ccc(-c2c[nH]c3ncc(NCc4cc(F)cc(F)c4)cc23)cc1
(b) O=C(Nc1cc(C(F)(F)F)cc(C(F)(F)F)c1)Nc1cnc2[nH]cc(-c3cncc(F)c3)c2c1
Could you check which of a and b has a smaller value for Activity? Please respond with the label that marks your chosen entry.
a
(a: 36%, b: 88%)

###

species: Homo sapiens; experiment: Selectivity index, ratio of IC50 for inhibition of human full length recombinant DYRK1A to IC50 for inhibition of human 130-end recombinant CLK1
attribute-measured: Selectivity Index

COc1cncc(-c2c[nH]c3ncc(NCc4cc(F)cc(F)c4)cc23)c1 : 82.7
CN1CCN(c2ccc(CNc3cnc4[nH]cc(-c5cncc(F)c5)c4c3)cc2)CC1 : 142
c1cncc(-c2c[nH]c3ncc(NCc4ccc(N5CCOCC5)cc4)cc23)c1 : 36.9
COc1cncc(-c2c[nH]c3ncc(NCc4ccc(N5CCOCC5)cc4)cc23)c1 : 63.2
Nc1cccc(-c2c[nH]c3ncc(NCc4cc(F)cc(F)c4)cc23)c1 : 5.9
Nc1ccc(-c2cnc3[nH]cc(-c4ccc(O)cc4)c3c2)cc1 : 1.3
COc1cc(Cl)ccc1C(=O)Nc1cnc2[nH]cc(-c3cccnc3)c2c1 : 81.4
Fc1cc(F)cc(CNc2cnc3[nH]cc(-c4ccc(C(F)(F)F)cc4)c3c2)c1 : 1.7

(I) COc1cncc(-c2c[nH]c3ncc(NC(=O)c4ccc(F)cc4)cc23)c1
(II) COc1cncc(-c2c[nH]c3ncc(NCc4ccc(F)cc4)cc23)c1
When their Selectivity Index values are compared, which is larger, I or II ? # answer = label of selected item
II
(II: 156, I: 85.8)

###

target: Dual specificity protein kinase CLK1 (Homo sapiens, UniProt P49759); experiment: Inhibition of human 130-end recombinant CLK1 assessed as remaining activity using ERMRPRKRQGSVR as substrate by [gamma-32P]ATP binding based scintillation counting based analysis
attribute-measured: IC50 (nM)

Worked examples follow.
O=C(Nc1cc(C(F)(F)F)cc(C(F)(F)F)c1)Nc1cnc2[nH]cc(-c3cncc(F)c3)c2c1 : 1870
COc1cc(Cl)ccc1C(=O)Nc1cnc2[nH]cc(-c3cncc(F)c3)c2c1 : 66
NC(=O)c1cccc(-c2c[nH]c3ncc(NCc4cc(F)cc(F)c4)cc23)c1 : 762
Fc1cc(F)cc(CNc2cnc3[nH]cc(-c4ccc5ccccc5c4)c3c2)c1 : 476
COc1cncc(-c2c[nH]c3ncc(NCc4ccc(N5CCOCC5)cc4)cc23)c1 : 30

(a) CCN(CC)c1ccc(CNc2cnc3[nH]cc(-c4cccnc4)c3c2)cc1
(b) Fc1cc(F)cc(CNc2cnc3[nH]cc(-c4cc5ccccc5s4)c3c2)c1
(c) O=C(Nc1cnc2[nH]cc(-c3cccnc3)c2c1)c1ccc(F)cc1
rank_up(items): orders items by reported IC50 in ascending numerical order. Write the labels, ordered according to the request.
c, a, b

###

organism: Homo sapiens; assay: Selectivity index, ratio of IC50 for inhibition of human full length recombinant DYRK1A to IC50 for inhibition of human 130-end recombinant CLK1
attribute-measured: Selectivity Index

(1) COc1ccc(-c2c[nH]c3ncc(NCc4cc(F)cc(F)c4)cc23)cc1
(2) FC(F)(F)c1cccc(CNc2cnc3[nH]cc(-c4cccnc4)c3c2)c1
(3) COc1ccc(-c2cnc3ccc(NCc4cc(F)cc(F)c4)cn23)cc1
(4) COc1cncc(-c2c[nH]c3ncc(NC(=O)c4ccc(Cl)cc4OC)cc23)c1
Sort these molecules on Selectivity Index so the largest reading comes first. Dear reader, please state the labels in the requested order.
4, 2, 1, 3
(4: 700, 2: 15.3, 1: 6.5, 3: 0.8)

###

molecular target: Dual specificity protein kinase CLK1 (Homo sapiens, UniProt P49759); experiment: Inhibition of human 130-end recombinant CLK1 assessed as remaining activity using ERMRPRKRQGSVR as substrate by [gamma-32P]ATP binding based scintillation counting based analysis
attribute-measured: IC50 (µM)

CC(C)c1cccc(CNc2cnc3[nH]cc(-c4cccnc4)c3c2)c1 : 0.023
COc1cncc(-c2c[nH]c3ncc(NC(=O)c4ccc(Cl)cc4OC)cc23)c1 : 0.005
CC(C)(C)c1cccc(CNc2cnc3[nH]cc(-c4cccnc4)c3c2)c1 : 0.045
Nc1ncc(-c2c[nH]c3ncc(NCc4cc(F)cc(F)c4)cc23)cn1 : 0.075
Nc1ccc(-c2c[nH]c3ncc(NCc4cc(F)cc(F)c4)cc23)cc1 : 0.089

(a) COc1cncc(-c2c[nH]c3ncc(NCc4ccc(F)cc4)cc23)c1
(b) O=C(Nc1cnc2[nH]cc(-c3cccnc3)c2c1)c1ccc(C(F)(F)F)c(F)c1
Form field 'greater IC50' accepts a or b ; which applies? Use the label to indicate which entry you chose.
b

(1) O=C(Nc1cnc2[nH]cc(-c3cncc(F)c3)c2c1)c1ccco1
(2) COc1cc(Cl)ccc1C(=O)Nc1cnc2[nH]cc(-c3cccnc3)c2c1
(3) COc1cncc(-c2c[nH]c3ncc(NCc4cccc(F)c4)cc23)c1
Please put the entries in order of rising IC50. State the ranking by listing the labels in the requested order.
3, 2, 1

(1) Nc1ccc(-c2cnc3[nH]cc(-c4ccc(O)cc4)c3c2)cc1
(2) COc1ccc(-c2cnc3ccc(NCc4cc(F)cc(F)c4)cn23)cc1
Hi there! Just curious which has the higher IC50 between 1 and 2 . Refer to your chosen item by its label in the answer.
2
(2: 0.569 µM, 1: 0.034 µM)

(P) CN1CCN(c2ccc(CNc3cnc4[nH]cc(-c5cncc(F)c5)c4c3)cc2)CC1
(Q) Fc1cccc(/C=N/c2cnc3[nH]cc(-c4cncc(F)c4)c3c2)c1
Problem: Given the entries P and Q , determine which has the lower reported IC50. Identify your selection by its label.
P
(P: 0.042 µM, Q: 0.454 µM)
